Kindly supply the reported inhibition values for the records listed here.
- Test system: Heat shock protein HSP 90 (rabbit reticulocyte lysate; luciferase refolding)
- TEST PROTOCOL: HSP90 inhibitors, primary screen, cell lysate, luminescence (AID 1789);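 further: 0% = DMSO wells and 100% = 60 µM geldanamycin wells; inhibitors lower the luminescence because luciferase stays unfolded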
- RECORDED CONDITIONS: 3 h, at 5.6 µM, active compounds read high
About 2,700 (0.93%) of roughly 290,000 compounds were called active. This excerpt belongs to a sample that is enriched for actives. Square brackets hold non-standard residues; d marks the D form. Peptide text beside a SMILES is read from it. * marks the point of attachment. PhAc = O=C(Cc1ccccc1)*

Some solved entries appear below for comparison.
[
  {
    "COMPOUND": "COc1cc(OC)cc(C(=O)NCCSCc2ccc(Cl)cc2)c1",
    "inhibition": "2.62% (inactive)"
  },
  {
    "COMPOUND": "O=C(Oc1cccc(C(=S)N2CCOCC2)c1)c1cccc(Cl)c1",
    "inhibition": "-2.58% (inactive)"
  },
  {
    "COMPOUND": "CS(=O)(=O)c1sc2nc(-c3ccccc3)cc(-c3ccccc3)c2c1N",
    "inhibition": "0.41% (inactive)"
  },
  {
    "COMPOUND": "O=C(CCc1nc2ccccc2c(=O)[nH]1)OCC(=O)c1cccc(Cl)c1",
    "inhibition": "-0.45% (inactive)"
  },
  {
    "COMPOUND": "CCCOc1ccc(C(=O)NCCc2ccccc2)cc1",
    "inhibition": "20.7% (active)"
  },
  {
    "COMPOUND": "O=C(CC(n1cncn1)C(Cl)(Cl)Cl)c1ccc([N+](=O)[O-])cc1 (centres undefined)",
    "inhibition": "-0.82% (inactive)"
  },
  {
    "COMPOUND": "O=C(Nc1ccc(N2CCOCC2)cc1)c1ccc2c(c1)OCO2",
    "inhibition": "4.41% (inactive)"
  },
  {
    "COMPOUND": "O=C(c1ccc(Br)o1)N1CCN(CCOc2ccccc2)CC1",
    "inhibition": "-4.13% (inactive)"
  },
  {
    "COMPOUND": "COc1ccc(C(=O)O/N=C(\\N)c2ccccn2)cc1[N+](=O)[O-]",
    "inhibition": "-3.48% (inactive)"
  },
  {
    "COMPOUND": "COc1ccc(CNC(=O)CCN2C(=O)c3ccccc3C2=O)cc1",
    "inhibition": "3.06% (inactive)"
  }
]

For every item below, please supply its inhibition.
1. COc1ccc(C(=O)n2nc(C)c(Br)c2C)cc1OC
2. Cc1cc(=O)oc2cc(OC(C)C(=O)NCCc3ccc(S(N)(=O)=O)cc3)ccc12 (centres undefined)
3. Cc1cc(C)cc(NC(=O)NC2CCCCCCC2)c1
4. Cc1ccc(NC(=O)C(CC(=O)O)C2CCCO2)c(C)c1 (centres undefined)
5. O=C(/C=C/c1cccc([N+](=O)[O-])c1)N1CCN(Cc2ccccc2)CC1

Ans.
["4.92% (inactive)", "-1.68% (inactive)", "-3.82% (inactive)", "-2.07% (inactive)", "-2.98% (inactive)"]

For every item below, please supply its inhibition.
1. COc1ccc(OCc2cccc(C(=O)N3CCCC3)c2)cc1
2. COc1ccc2c(c1)C(NS(=O)(=O)OCC(Cl)(Cl)Cl)CCC2 (centres undefined)
3. COc1ccc(N(CC(=O)Nc2cc(OC)cc(OC)c2)S(=O)(=O)c2c(C)n[nH]c2C)cc1

Ans.
12.3% (inactive)
-3.42% (inactive)
-1.64% (inactive)

For every item below, please supply its inhibition.
1. CC(C)Cc1nnc(NC(=O)CN2C(=O)NC3(CCCCC3)C2=O)s1
2. CC(C)C[C@@H](NC(=O)[C@H]1CCCN1C(=O)Cc1ccccc1)C(N)=O (PhAc-[dP]-[dL]-NH2)
3. COc1ccc(-n2ncc3c2CC(C)(C)CC3NC(=O)CCc2c(C)nn(C)c2C)cc1 (centres undefined)
4. COc1ccc(OC)c(NC(=O)c2cccc(S(=O)(=O)N3CCN(C(C)=O)CC3)c2)c1

Ans.
-3.19% (inactive)
-3.77% (inactive)
-4.92% (inactive)
0.82% (inactive)

For every item below, please supply its inhibition.
1. CCOC(=O)CNC(=O)c1nn(-c2cccc(OC)c2)c(=O)c2ccccc12
2. O=C(Cc1ccccc1)Nc1ccc(C(=O)Nc2ccccc2C(=O)O)cc1
3. Cc1ccc(SCCC(=O)OCC(=O)Nc2ncc(Cl)cc2Cl)cc1
4. COc1ccc(Cl)cc1NC(=O)c1cccc(N2C(=O)C3CC=CCC3C2=O)c1 (centres undefined)
5. CNC(=O)CN1C(=O)NC(c2ccccc2)(c2ccccc2)C1=O
6. S=c1[nH]nc(/C=C/c2ccccc2)o1
7. NC(=O)c1ccc(NC(=O)COC(=O)c2c3c(nc4ccccc24)/C(=C\c2ccc4c(c2)OCO4)CCC3)cc1
8. O=C(Nc1ccccc1C(=O)O)c1ccc(N2C(=O)C3CC=CCC3C2=O)cc1 (centres undefined)

Ans.
1: 20.7% (active); 2: 2.96% (inactive); 3: 3.89% (inactive); 4: -3.52% (inactive); 5: 3.3% (inactive); 6: -3.77% (inactive); 7: -5.16% (inactive); 8: 19.6% (active)
